Assay Target: CDK9/cyclinT1 complex (Homo sapiens, UniProt P50750)
Sequence (P50750 whole entry, species assumed): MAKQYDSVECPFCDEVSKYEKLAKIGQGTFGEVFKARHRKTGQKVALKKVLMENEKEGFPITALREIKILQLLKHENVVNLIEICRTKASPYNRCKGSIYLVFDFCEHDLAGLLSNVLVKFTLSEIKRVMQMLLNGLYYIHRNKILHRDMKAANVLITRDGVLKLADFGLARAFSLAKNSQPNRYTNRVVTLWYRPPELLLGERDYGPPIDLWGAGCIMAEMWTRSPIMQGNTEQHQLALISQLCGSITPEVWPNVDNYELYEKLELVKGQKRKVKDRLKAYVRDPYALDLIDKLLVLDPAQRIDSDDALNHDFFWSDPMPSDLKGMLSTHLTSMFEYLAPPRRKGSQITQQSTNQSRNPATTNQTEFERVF
Sequence (O60563 whole entry partner, species assumed): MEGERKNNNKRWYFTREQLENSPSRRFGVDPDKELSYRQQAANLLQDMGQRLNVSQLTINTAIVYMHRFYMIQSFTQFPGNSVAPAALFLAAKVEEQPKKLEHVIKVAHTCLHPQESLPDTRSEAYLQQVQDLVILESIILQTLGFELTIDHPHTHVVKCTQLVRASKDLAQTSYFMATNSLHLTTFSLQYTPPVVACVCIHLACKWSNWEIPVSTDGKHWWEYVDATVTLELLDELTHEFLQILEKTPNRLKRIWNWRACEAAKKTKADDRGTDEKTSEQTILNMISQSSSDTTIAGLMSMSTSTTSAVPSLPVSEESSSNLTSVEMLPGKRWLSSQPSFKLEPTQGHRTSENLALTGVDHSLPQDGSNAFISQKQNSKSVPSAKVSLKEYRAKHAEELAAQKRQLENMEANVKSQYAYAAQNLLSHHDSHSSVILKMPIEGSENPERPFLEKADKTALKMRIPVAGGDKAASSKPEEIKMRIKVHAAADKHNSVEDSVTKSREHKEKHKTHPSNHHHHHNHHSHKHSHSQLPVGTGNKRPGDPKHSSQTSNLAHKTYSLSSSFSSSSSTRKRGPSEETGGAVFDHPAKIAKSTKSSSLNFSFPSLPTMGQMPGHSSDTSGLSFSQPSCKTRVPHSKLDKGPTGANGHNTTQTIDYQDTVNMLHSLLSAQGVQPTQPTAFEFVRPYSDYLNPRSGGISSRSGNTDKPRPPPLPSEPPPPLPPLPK
Measurement Notes: In-vitro enzymatic inhibitory activity testing, CDK9 inhibition assay (Caliper EZ Reader II)
Measurement Conditions: CDK9/cyclinT1 8 nM, 180 min at 27° C.
Measurement Label: IC50

Some solved entries appear below for comparison.
{"Compound": "CC1(C)COCC(Nc2ncc(C(F)(F)F)c(-c3c[nH]c4nc(C#N)ccc34)n2)CN1 (single isomer, unassigned) [Compound 63]", "Measurement Label": "IC50", "Recorded Value": "> 50 µM"}
{"Compound": "CP(C)(=O)c1cccc2c(-c3nc(NC4(CO)CC(F)(F)C4)ncc3C(F)(F)F)c[nH]c12", "Measurement Label": "IC50", "Recorded Value": "> 50 µM"}
{"Compound": "CP(C)(=O)c1cccc2c(-c3nc(N[C@@H]4CCC[C@H]4O)ncc3C(F)(F)F)c[nH]c12", "Measurement Label": "IC50", "Recorded Value": "5 to 50 µM"}
{"Compound": "CN(C)CC1CCCC1Nc1ncc(C(F)(F)F)c(-c2c[nH]c3c(P(C)(C)=O)cccc23)n1 (single isomer, unassigned) [Compound 135]", "Measurement Label": "IC50", "Recorded Value": "5 to 50 µM"}

Identify measured IC50 corresponding to C[C@@H](CO)Nc1ncc(Br)c(-c2c[nH]c3c(P(C)(C)=O)cccc23)n1
5 to 50 µM

Identify measured IC50 corresponding to CP(C)(=O)c1cccc2c(-c3nc(NCC4(O)CCOC4)ncc3C(F)(F)F)c[nH]c12 (single isomer, unassigned) [Compound 122]
> 50 µM

Identify measured IC50 corresponding to CP(C)(=O)c1cccc2c(-c3nc(NC[C@H](F)CO)ncc3C(F)(F)F)c[nH]c12
> 50 µM

Identify measured IC50 corresponding to CP(C)(=O)c1cccc2c(-c3nc(NC4(CO)CCOC4)ncc3C(F)(F)F)c[nH]c12 (stereo not drawn) [Compound 117]
> 50 µM

Identify measured IC50 corresponding to Cc1noc(C)c1-c1ccc2c(-c3nc(NC4CCC5(CCNC5)C4)ncc3C(F)(F)F)c[nH]c2n1 (stereo not drawn)
0.2 to 5 µM

----------
The compounds listed here are annotated with their IC50.
Assay Target: CDK12 (aa686-1082)/cyclinK complex (Homo sapiens, UniProt Q9NYV4)
Construct: A CDK12 (aa686-1082)/cyclinK complex (50 nM)
Sequence (Q9NYV4 686-1082, species assumed): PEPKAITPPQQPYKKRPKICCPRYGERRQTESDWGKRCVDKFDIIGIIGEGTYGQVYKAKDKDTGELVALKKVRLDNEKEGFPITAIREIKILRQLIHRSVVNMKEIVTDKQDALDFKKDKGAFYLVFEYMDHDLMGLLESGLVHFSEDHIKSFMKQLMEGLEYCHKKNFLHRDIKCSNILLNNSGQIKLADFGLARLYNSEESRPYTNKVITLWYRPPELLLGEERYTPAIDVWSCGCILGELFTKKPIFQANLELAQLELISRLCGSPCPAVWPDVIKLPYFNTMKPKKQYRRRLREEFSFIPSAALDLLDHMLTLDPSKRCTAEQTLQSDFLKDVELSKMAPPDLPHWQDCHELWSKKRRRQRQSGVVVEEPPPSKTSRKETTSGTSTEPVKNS
Sequence (O75909 whole entry partner, species assumed, the tested form may be a part): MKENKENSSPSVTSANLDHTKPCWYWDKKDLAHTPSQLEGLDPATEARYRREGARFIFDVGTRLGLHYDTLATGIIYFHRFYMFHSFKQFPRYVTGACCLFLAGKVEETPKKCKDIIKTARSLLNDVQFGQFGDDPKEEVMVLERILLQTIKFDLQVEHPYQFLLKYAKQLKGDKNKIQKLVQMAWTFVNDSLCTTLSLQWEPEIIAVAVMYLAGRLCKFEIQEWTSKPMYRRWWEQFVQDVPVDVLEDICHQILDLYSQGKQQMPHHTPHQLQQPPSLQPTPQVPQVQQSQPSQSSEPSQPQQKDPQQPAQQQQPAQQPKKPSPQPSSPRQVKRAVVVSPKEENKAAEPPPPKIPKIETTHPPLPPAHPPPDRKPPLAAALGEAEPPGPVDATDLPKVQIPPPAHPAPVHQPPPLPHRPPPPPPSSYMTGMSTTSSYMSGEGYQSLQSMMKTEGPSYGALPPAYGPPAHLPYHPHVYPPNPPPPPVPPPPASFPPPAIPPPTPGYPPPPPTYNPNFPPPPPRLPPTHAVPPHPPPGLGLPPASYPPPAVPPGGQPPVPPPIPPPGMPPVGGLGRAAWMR
Measurement Notes: In-vitro enzymatic inhibitory activity testing, CDK12 inhibition assay (Caliper EZ Reader II)
Type: biochemical
Measurement Conditions: CDK12/cyclinK 50 nM, 180 min at 27° C.; read-out: CDK12 IC50
Experimental: An assay was carried out in a U-bottom 384-well plate (coming, 4512#), and the reaction temperature was 27° C. […] A reaction mixture was analyzed on Caliper EZ Reader II by electrophoretic separation of a fluorogenic substrate and a phosphorylated product. Data were calculated by using GraphPad Prism version 6.0, and IC50 values were adjusted and obtained by using a nonlinear regression model of a dose response curve.

Some solved entries appear below for comparison.
{"Compound": "CP(C)(=O)c1cccc2c(-c3nc(NCC4CC(O)C4)ncc3C(F)(F)F)c[nH]c12 (centres unmarked)", "Recorded Value": "> 50 µM"}
{"Compound": "C[C@@H](CO)Nc1nccc(-c2c[nH]c3c(P(C)(C)=O)cccc23)n1", "Recorded Value": "> 50 µM"}
{"Compound": "FC(F)(F)c1cnc(NC2COC23CNC3)nc1-c1c[nH]c2nc(N3CCOCC3)ccc12 (centres unmarked)", "Recorded Value": "> 50 µM"}

Identify measured IC50 corresponding to CP(C)(=O)c1cccc2c(-c3nc(NC4(CO)CCCC4)ncc3C(F)(F)F)c[nH]c12
> 50 µM

Identify measured IC50 corresponding to CP(C)(=O)c1cccc2c(-c3nc(NC4CC45CCNC5)ncc3C(F)(F)F)c[nH]c12 (single isomer, unassigned) [Compound 109]
> 50 µM

Identify measured IC50 corresponding to FC(F)(F)c1cnc(NC2COC3(CCNCC3)C2)nc1-c1c[nH]c2nc(N3CCOCC3)ccc12 (centres unmarked)
5 to 50 µM

Identify measured IC50 corresponding to FC(F)(F)c1cnc(NC2CCCC3(CCCN3)C2)nc1-c1c[nH]c2nc(N3CCOCC3)ccc12 (centres unmarked)
5 to 50 µM

Identify measured IC50 corresponding to CP(C)(=O)c1cccc2c(-c3nc(NCC4CC4CO)ncc3C(F)(F)F)c[nH]c12 (single isomer, unassigned) [Compound 143]
> 50 µM

Identify measured IC50 corresponding to CC1(C)COC[C@@H](Nc2ncc(C(F)(F)F)c(-c3c[nH]c4nc(C#N)ccc34)n2)CN1 (single isomer, unassigned)
5 to 50 µM

Identify measured IC50 corresponding to CP(C)(=O)c1cccc2c(-c3nc(N[C@H]4CC[C@@H]4O)ncc3C(F)(F)F)c[nH]c12
5 to 50 µM

Identify measured IC50 corresponding to CP(C)(=O)c1cccc2c(-c3nc(NC4CC45CCNC5)ncc3C(F)(F)F)c[nH]c12 (single isomer, unassigned) [Compound 111]
> 50 µM

Identify measured IC50 corresponding to CP(C)(=O)c1cccc2c(-c3nc(NC4(CO)CCC4)ncc3C(F)(F)F)c[nH]c12
> 50 µM

Identify measured IC50 corresponding to N#Cc1ccc2c(-c3nc(N[C@@H]4CCC45CNC5)ncc3C(F)(F)F)c[nH]c2n1
5 to 50 µM

Identify measured IC50 corresponding to CC(CO)CNc1ncc(C(F)(F)F)c(-c2c[nH]c3c(P(C)(C)=O)cccc23)n1 (single isomer, unassigned) [Compound 149]
> 50 µM
